molecular target: EPHB1 (Homo sapiens, UniProt P54762); experiment: In vitro kinase inhibition profile (biochemical); conditions: read-out: Biochemical (IC50 nmol/L)
Sequence (P54762 18-984): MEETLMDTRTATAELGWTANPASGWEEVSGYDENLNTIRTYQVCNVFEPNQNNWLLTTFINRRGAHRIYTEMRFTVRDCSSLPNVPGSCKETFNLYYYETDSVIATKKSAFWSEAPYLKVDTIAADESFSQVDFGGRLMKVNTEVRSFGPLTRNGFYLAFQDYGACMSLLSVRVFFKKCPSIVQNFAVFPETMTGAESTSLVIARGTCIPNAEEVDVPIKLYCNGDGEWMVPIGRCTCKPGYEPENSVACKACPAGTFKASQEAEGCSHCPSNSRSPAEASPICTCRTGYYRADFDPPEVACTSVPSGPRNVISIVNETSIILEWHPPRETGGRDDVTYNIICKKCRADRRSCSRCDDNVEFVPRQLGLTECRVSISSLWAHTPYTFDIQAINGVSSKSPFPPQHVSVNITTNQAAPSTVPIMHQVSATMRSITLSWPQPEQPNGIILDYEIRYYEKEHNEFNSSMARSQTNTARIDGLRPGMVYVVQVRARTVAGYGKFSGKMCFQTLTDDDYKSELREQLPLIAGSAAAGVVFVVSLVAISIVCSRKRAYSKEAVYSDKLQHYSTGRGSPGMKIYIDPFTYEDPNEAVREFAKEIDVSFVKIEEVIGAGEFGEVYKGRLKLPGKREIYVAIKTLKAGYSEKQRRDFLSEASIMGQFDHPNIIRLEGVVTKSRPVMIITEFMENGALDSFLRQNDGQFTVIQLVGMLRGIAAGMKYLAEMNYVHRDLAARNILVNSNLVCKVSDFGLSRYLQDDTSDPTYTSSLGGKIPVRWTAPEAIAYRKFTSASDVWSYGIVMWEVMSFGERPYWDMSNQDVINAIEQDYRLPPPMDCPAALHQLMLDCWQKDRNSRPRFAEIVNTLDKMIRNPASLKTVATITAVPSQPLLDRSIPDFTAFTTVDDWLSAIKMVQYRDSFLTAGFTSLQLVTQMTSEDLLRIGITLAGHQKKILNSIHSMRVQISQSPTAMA
RESULT_TYPE: IC50

IC50 lookup needed for COCCNCc1ccc(-c2cc3nccc(Oc4ccc(NC(=O)C5(C(=O)Nc6ccc(F)cc6)CC5)cc4F)c3s2)nc1 [MGCD516, Sitravatinib] , thanks.
> 10000 nmol/L

---

target: UniProtKB Q05397
Sequence (Q05397 whole entry): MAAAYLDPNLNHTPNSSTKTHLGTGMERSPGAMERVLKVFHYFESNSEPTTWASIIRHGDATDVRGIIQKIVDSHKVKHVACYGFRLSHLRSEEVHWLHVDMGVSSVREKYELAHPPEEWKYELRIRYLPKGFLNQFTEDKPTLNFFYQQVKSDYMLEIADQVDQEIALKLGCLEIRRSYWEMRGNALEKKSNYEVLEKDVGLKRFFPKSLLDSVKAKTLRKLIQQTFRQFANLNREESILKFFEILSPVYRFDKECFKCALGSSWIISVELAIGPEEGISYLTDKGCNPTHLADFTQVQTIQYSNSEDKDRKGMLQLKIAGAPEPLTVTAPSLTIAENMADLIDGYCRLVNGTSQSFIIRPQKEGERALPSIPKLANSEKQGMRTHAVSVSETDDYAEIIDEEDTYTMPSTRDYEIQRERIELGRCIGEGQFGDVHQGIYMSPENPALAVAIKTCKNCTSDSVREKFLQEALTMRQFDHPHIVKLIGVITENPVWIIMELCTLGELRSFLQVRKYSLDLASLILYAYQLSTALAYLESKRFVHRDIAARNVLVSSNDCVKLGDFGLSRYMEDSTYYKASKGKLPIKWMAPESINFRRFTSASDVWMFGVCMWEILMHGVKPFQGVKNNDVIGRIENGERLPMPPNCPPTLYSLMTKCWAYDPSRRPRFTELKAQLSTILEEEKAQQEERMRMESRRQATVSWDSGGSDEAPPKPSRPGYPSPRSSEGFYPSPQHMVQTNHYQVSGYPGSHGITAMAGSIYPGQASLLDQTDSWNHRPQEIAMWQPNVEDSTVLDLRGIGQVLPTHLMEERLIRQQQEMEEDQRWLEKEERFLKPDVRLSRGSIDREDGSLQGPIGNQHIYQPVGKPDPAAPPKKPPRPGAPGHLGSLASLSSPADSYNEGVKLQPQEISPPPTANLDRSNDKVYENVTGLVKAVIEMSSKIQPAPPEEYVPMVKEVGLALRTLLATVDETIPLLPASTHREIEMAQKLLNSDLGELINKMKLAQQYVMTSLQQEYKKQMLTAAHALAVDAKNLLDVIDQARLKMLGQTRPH
RESULT_TYPE: IC50

GET /values?readout=IC50&item= `COCCNCc1ccc(-c2cc3nccc(Oc4ccc(NC(=O)C5(C(=O)Nc6ccc(F)cc6)CC5)cc4F)c3s2)nc1`
> 10 µM

---

target: FYN (Homo sapiens); experiment: In vitro kinase inhibition profile (biochemical); conditions: read-out: Biochemical (IC50 nmol/L)
RESULT_TYPE: pIC50
pIC50 field: float, defined as -log10 of concentration (mol/L).

If you can, please state the reported pIC50 value of `COCCNCc1ccc(-c2cc3nccc(Oc4ccc(NC(=O)C5(C(=O)Nc6ccc(F)cc6)CC5)cc4F)c3s2)nc1` .
6.47

---

biological target: ABL (Homo sapiens, UniProt P00519)
Sequence (P00519 whole entry): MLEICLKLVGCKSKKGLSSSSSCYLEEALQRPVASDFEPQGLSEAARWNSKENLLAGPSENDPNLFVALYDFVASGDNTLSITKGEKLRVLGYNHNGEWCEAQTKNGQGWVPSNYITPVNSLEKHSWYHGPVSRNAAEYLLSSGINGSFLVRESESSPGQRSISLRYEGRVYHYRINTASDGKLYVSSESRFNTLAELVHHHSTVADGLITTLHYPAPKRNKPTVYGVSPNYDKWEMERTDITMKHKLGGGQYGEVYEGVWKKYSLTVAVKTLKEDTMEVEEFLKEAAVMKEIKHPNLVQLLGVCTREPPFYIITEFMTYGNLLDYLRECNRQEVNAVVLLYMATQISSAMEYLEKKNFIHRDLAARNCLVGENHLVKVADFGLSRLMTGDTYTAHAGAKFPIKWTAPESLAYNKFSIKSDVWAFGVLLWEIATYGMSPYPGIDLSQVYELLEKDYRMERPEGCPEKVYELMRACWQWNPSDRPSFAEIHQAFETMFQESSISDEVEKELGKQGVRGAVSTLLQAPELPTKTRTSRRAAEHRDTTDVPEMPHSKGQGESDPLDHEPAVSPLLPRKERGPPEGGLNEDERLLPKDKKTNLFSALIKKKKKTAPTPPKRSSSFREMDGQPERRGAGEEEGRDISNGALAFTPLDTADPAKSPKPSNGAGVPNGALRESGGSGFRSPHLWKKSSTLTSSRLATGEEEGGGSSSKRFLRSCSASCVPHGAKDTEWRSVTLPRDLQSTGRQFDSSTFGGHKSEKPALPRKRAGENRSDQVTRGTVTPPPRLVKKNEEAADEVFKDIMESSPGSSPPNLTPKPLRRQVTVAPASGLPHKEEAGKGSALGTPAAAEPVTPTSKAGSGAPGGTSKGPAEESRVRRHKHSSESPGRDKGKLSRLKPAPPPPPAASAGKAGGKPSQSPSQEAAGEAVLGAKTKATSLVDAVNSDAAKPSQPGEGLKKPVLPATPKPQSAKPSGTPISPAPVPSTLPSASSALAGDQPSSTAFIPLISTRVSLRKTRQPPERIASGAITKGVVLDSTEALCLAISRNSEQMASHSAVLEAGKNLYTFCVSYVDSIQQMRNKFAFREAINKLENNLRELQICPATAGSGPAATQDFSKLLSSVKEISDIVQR
RESULT_TYPE: IC50 (nM)
// note: answer is a bare numeric in nM

Query (molecule): COCCNCc1ccc(-c2cc3nccc(Oc4ccc(NC(=O)C5(C(=O)Nc6ccc(F)cc6)CC5)cc4F)c3s2)nc1 [MGCD516, Sitravatinib] ; field requested: IC50
2990

---

molecular target: FER (Homo sapiens)
Sequence (P16591 whole entry): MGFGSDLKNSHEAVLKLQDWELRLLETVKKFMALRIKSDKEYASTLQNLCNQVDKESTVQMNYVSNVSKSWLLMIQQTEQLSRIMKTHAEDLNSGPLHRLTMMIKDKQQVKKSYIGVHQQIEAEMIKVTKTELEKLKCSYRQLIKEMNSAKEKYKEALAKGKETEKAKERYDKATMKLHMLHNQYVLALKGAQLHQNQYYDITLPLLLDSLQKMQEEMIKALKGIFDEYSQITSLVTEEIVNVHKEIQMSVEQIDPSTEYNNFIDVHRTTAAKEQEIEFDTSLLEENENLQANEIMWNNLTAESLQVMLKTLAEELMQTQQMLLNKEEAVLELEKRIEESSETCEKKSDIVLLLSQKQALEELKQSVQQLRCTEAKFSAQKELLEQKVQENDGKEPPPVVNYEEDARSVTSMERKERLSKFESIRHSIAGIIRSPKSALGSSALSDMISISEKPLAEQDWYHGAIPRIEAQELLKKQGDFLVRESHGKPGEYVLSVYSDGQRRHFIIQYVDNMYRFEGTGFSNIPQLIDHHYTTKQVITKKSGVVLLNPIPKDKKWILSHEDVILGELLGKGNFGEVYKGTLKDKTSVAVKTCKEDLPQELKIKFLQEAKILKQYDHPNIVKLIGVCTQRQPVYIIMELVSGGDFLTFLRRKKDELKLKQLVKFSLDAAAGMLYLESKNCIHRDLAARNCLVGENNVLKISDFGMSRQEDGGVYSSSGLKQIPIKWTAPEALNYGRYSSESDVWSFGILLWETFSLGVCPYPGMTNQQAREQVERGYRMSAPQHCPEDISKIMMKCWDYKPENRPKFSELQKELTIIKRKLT
RESULT_TYPE: IC50

Item: COCCNCc1ccc(-c2cc3nccc(Oc4ccc(NC(=O)C5(C(=O)Nc6ccc(F)cc6)CC5)cc4F)c3s2)nc1 [MGCD516, Sitravatinib] Test system: FER (Homo sapiens) Read-out: IC50 Value: ?
1590 nM

---

target: EPHA4 (Homo sapiens, UniProt P54764)
Sequence (P54764 20-986): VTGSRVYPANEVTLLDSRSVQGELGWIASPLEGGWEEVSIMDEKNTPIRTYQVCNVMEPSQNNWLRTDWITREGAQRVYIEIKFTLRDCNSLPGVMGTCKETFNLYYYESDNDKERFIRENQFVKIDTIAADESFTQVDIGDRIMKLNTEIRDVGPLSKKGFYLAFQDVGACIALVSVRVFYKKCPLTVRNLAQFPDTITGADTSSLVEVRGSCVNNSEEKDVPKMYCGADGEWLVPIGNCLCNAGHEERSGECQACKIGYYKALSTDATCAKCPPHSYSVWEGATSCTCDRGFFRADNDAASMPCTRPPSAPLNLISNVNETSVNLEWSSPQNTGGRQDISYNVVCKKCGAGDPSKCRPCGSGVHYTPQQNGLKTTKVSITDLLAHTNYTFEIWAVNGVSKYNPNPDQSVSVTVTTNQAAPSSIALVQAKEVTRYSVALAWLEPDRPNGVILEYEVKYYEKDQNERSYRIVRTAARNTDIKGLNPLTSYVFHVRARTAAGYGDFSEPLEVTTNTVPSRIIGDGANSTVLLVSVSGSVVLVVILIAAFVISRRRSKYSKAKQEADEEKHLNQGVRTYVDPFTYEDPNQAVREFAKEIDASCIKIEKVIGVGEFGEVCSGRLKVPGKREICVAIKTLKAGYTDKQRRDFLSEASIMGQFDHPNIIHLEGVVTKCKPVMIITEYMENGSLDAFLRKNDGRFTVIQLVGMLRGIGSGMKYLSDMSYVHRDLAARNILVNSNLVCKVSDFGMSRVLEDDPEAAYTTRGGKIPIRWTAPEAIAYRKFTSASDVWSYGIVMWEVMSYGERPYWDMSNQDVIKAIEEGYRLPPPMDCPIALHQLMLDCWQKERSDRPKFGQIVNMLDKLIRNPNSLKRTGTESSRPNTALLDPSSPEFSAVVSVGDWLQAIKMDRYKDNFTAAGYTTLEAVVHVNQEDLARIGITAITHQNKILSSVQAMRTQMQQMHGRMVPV
RESULT_TYPE: IC50 (nM)
Give your result in nM as a bare value.

I am curious: what IC50 value has been reported for `COCCNCc1ccc(-c2cc3nccc(Oc4ccc(NC(=O)C5(C(=O)Nc6ccc(F)cc6)CC5)cc4F)c3s2)nc1` ?
76
